Measured Kd by item
targetSystem: transferrin
assayExplanation: SPR steady state affinity model, Biacore T100, transferrin immobilised (9758 RU)
Respond with the figure and its unit, in that order.

INSERT INTO measurements (binder, experimentalreadout, endpointvalue) VALUES
  ('AHKVVPQRQMRHAYSRYGSC [TBPM023]', 'Kd', '11.6 µM');

Using the record for GHKVVPQRQIRHAYNRYGSC [TBPL005] , state its measured Kd.
150 µM

Using the record for GHKVVPQRQMRHAYNRNGSC [TBPL025] , state its measured Kd.
150 µM
